Experimental Target: Peroxisome proliferator-activated receptor gamma (Homo sapiens)
Sequence (P37231 whole entry): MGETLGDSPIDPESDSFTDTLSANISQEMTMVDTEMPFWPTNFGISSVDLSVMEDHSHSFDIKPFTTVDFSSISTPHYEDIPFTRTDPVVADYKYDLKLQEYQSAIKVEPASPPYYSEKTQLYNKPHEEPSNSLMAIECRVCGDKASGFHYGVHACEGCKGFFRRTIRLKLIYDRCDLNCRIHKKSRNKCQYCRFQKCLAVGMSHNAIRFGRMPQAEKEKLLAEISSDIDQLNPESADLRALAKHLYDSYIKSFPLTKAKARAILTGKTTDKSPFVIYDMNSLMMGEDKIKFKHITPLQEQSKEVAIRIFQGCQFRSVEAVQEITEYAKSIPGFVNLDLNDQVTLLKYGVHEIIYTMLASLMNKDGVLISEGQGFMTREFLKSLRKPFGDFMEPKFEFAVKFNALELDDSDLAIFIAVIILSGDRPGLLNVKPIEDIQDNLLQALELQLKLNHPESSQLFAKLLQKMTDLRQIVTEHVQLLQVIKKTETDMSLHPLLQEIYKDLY
Assay Overview: Antagonist activity at human PPARgamma receptor assessed as rosiglitazone-induced receptor activation by alphascreen assay
Type: functional
Parameter IC50: see the listing below.
State the value, then name its unit.

Molecule | Reported Value
COc1c(Cl)c(C)cc2cc(O)c3c(c12)C(=O)c1cc2c(c(O)c1C3=O)C(C)OC2=O (centres undefined) | 320 nM

IN: # value lookup — system Peroxisome proliferator-activated receptor gamma (Homo sapiens), readout IC50, item COC(=O)c1cc2c(c(O)c1C(C)OC(C)=O)C(=O)c1c(O)cc3cc(C)c(Cl)c(OC)c3c1C2=O (centres undefined)
OUT: 100 nM

IN: # value lookup — system Peroxisome proliferator-activated receptor gamma (Homo sapiens), readout IC50, item COC(=O)c1cc2c(c(O)c1C(C)OC(=O)CO)C(=O)c1c(O)cc3cc(C)c(Cl)c(OC)c3c1C2=O (centres undefined)
OUT: 90 nM

IN: # value lookup — system Peroxisome proliferator-activated receptor gamma (Homo sapiens), readout IC50, item CCc1c(C(=O)OC)cc2c(c1O)C(=O)c1c(O)cc3cc(C)c(Cl)c(OC)c3c1C2=O
OUT: 160 nM
